test_method_notes: Particle size and polydispersity index of nanoparticle compositions (Zetasizer Nano ZS)
Format: physicochemical
assay_conditions: Table 1E; compositions for subcutaneous administration
So I've got a bunch of compounds here, and I need their Size (nm) values.
The reply should be a number in nm, with the unit left off.

The recorded Size (nm) for entry CCCCCCCCCOC(=O)CCCCCCCN(CCCCCCCC(=O)OC(CCCCCCCC)CCCCCCCC)CCCNC(C)=O equals 96.1

Lookup result for CCCCCCCCCOC(=O)CCCCCCCN(CCO)CCCCCCCCCC(=O)OC(CCCCCCCC)CCCCCCCC ; measured Size (nm): 70.5

Given item CCCCCCCCCOC(=O)CCCCCCCN(CCCCCCCC(=O)OC(CCCCCCCC)CCCCCCCC)CCCN/C(=N/C#N)N(C)C , the value recorded as its Size (nm) is 85.0

Per the records, this compound ( CCCCCCCCCOC(=O)CCCCCCCN(CCCCCCCC(=O)OC(CCCCCCCC)CCCCCCCC)CC(O)CO (stereo not shown) ) has Size (nm) equal to 71.8

Recorded result, CCCC/C=C\CCC(CC/C=C\CCCC)OC(=O)CCCCCCCN(CCO)CCCCCCCC(=O)OCCCCCCCCC , Size (nm): 93.3

response.value for CCCCC/C=C\C/C=C\CCCCCCCCC(CCCCCCCC/C=C\C/C=C\CCCCC)OC(=O)CCCN(C)C [MC3, DLin-MC3-DMA, reference compound] (field: Size (nm)) = 62.4

Quick note, Size (nm) for CCCCCCCCC(CCCCCCCC)OC(=O)CCCCCCCN(CCO)CCCCCC(=O)OC(CCCCCCCC)C1CC1 (stereo not shown) landed at 73.9

----------
test_method_notes: Residual lipid levels in rat liver and spleen (UPLC-MS)
Assay type: in vivo
assay_conditions: Table 19B, liver, 24 h
Exercise: state measured % dose remaining, liver, 24 h for each of the molecules provided.
Numbers only here, please. The scale is %.

GET /value?item= CCCCCCCCCOC(=O)CCCCCCCN(CCCCCCCC(=O)OC(CCCCCCCC)CCCCCCCC)CCCC(N)=O &field=% dose remaining, liver, 24 h returns 0.05

// CCCCCCCCCOC(=O)CCCCCCCN(CCO)CCCCCC(=O)OC1CCC(CCCCC)CC1 (centres unmarked) : % dose remaining, liver, 24 h value = 0.00

Summary for this molecule, CCCCCCCCC(CCCCCCCC)OC(=O)CCCCCCCN(CCO)CCCCCC(=O)OC(C)CCCCCCCCOC(C)=O (centres unmarked) : % dose remaining, liver, 24 h is 0.06

The molecule CCCCCCCCCOC(=O)CCCCCCCN(CCO)CCCCCCCCCC(=O)OC(CCCCCC)CCCCCC showed % dose remaining, liver, 24 h equal to 0.00

Reported % dose remaining, liver, 24 h ( CCCCC/C=C\C/C=C\CCCCCCCCC(CCCCCCCC/C=C\C/C=C\CCCCC)OC(=O)CCCN(C)C [MC3, DLin-MC3-DMA, reference compound] ) = 44

The molecule listed as CCCCCCCCCOC(=O)CCCCCCCN(CCCCCCCC(=O)OC(CCCCCCCC)CCCCCCCC)CCCN/C(=N/S(C)(=O)=O)N(C)C has a reported % dose remaining, liver, 24 h of 0.07

The molecule listed as CCCCCCCCCOC(=O)CCCCCCCN(CCCCCCCC(=O)OC(CCCCCCCC)CCCCCCCC)CCCN/C(=N/[N+](=O)[O-])NC shows % dose remaining, liver, 24 h equal to 0.36

The value of % dose remaining, liver, 24 h measured for the molecule CCCCCCCCCOC(=O)CCCCCCCN(CCO)CCCCCCC(C)OC(=O)C(CCCCCCCC)CCCCCCCC (centres unmarked) turned out to be 0.03

The molecule listed as CCCCCCCCCOC(=O)CCCCCCCNCCCCCCCC(=O)OC(CCCCCCCC)CCCCCCCC shows % dose remaining, liver, 24 h equal to 0.14

For this molecule ( CCCCCCCCC(CCCCCCCC)OC(=O)CCCCCCCN(CCO)CCCCCCCC(=O)OCC(C)CCCCCCC (centres unmarked) ), measured % dose remaining, liver, 24 h is 0.04

The recorded % dose remaining, liver, 24 h for CCCCCCCCC(CCCCCCCC)OC(=O)CCCCCCCN(CCO)CCCCCCCCCC(=O)OCCCCCCC is 0.00

----------
For each entry below, report its Lipid Purity value.
test_method_notes: Chemical stability of lipids in ethanol (lipid purity)
Format: physicochemical
assay_conditions: t = 0
// units = %; emit number, no label

What the record says about CCCCC/C=C\C/C=C\CCCCCCCCN(CCO)CCCCCCCC(=O)OCCCCCCCCC : Lipid Purity is 91.81

Entry CCCCC/C=C\C/C=C\CCCCCCCCN(CCO)CCCCCCCC(=O)OC(CCCCCCCC)CCCCCCCC — recorded Lipid Purity = 93.80

Summary for this compound, CCCCCCCCCOC(=O)CCCCCCCN(CCCCCCCC(=O)OC(CCCCCCCC)CCCCCCCC)CCCNC(=O)C(C)(C)COC : Lipid Purity is 95.17

The compound CCCCCCCCCOC(=O)CCCCCCCN(CCO)CCCCCCCC(=O)OC(CCCCCCCC)CCCCCCCC showed Lipid Purity equal to 94.37

// CCCCCCCCCCCOC(=O)CCCCCN(CCO)CCCCCCCC(=O)OC(CCCCCCCC)CCCCCCCC : Lipid Purity value = 95.58

----------
test_method_notes: Clinical chemistry and hematology in rat, 2 mpk i.v., 48 h
Format: in vivo
assay_conditions: intravenous, 48 h post dose
Rule: Concentration Monocytes below 2000 gives T, anything at or above gives F.

Exercise: Concentration Monocytes strictly < 2000 for this molecule? CCCCCC/C=C\COC(=O)CCCCCCCN(CCO)CCCCCCCC(=O)OC(CCCCCCCC)CCCCCCCC
Key: T

Exercise: Below 2000 on Concentration Monocytes? Entry CCCCCCCCCOC(=O)CCCCCCCN(CCO)CCCCCCCOC(=O)C(CCCCCCCC)CCCCCCCC
Key: T

Exercise: Decide: Concentration Monocytes of CCCCCCCCCCCOC(=O)CCCCCN(CCO)CCCCCCCC(=O)OC(CCCCCCCC)CCCCCCCC strictly below 2000?
Key: F

Exercise: Please determine if CCCCC/C=C\C/C=C\CCCCCCCCC(CCCCCCCC/C=C\C/C=C\CCCCC)OC(=O)CCCN(C)C [MC3, DLin-MC3-DMA, reference compound] is below 2000 in terms of Concentration Monocytes.
Key: T

Exercise: Could you please tell me whether Concentration Monocytes recorded for CCCCCCCCCN(CCO)CCCCCCCC(=O)OC(CCCCCCCC)CCCCCCCC is less than 2000?
Key: F

----------
Would you kindly list % EE for each of these molecules?
test_method_notes: Encapsulation efficiency of RNA (QUANT-IT RIBOGREEN RNA assay)
Type: physicochemical
assay_conditions: Table 1C; compositions for subcutaneous administration
Kindly report the value followed by its unit.

Documented % EE of CCCCCCCCC(CC)OC(=O)CCCN(CCO)CCCCCCCC(=O)OC(CCCCCCCC)CCCCCCCC (centres unmarked) : 94.9%

So, CCCCCCCCCOC(=O)CCCCCCCN(CCCCO)CCCCCCCC(=O)OC(CCCCCCCC)CCCCCCCC ? Its % EE was 91.6%

Memo: CCCCCCCCC(CC)OC(=O)CCCCCN(CCO)CCCCCCCC(=O)OC(CCCCCCCC)CCCCCCCC (centres unmarked) , reported % EE: 94.9%

Field % EE (entry CCCCCCCCCOC(=O)CCCCCCCN(CCCCCCCC(=O)OC(CCCCCCCC)CCCCCCCC)CCCNC(=S)NC ) reads 99.6%

Record summary for CCCCCCCCCOC(=O)CCCCCCCN(CCO)CCCCCCCOC(=O)C(CCCCCCCC)CCCCCCCC : reported % EE = 93.0%

In plain terms, CCCCCCCCCOC(=O)CCCCCCCN(CCCCCCCC(=O)OC(CCCCCCCC)CCCCCCCC)CCCNC(=O)N(C)C has a documented % EE of 91.9%

Lookup result for CCCCCCCCCCCOC(=O)CCCCCN(CCO)CCCCCCCC(=O)OC(CCCCCCCC)CCCCCCCC ; measured % EE: 98.1%

Value of % EE reported for the molecule CCCCC/C=C\C/C=C\CCCCCCCCC(CCCCCCCC/C=C\C/C=C\CCCCC)OC(=O)CCCN(C)C [MC3, DLin-MC3-DMA, reference compound] is 98.2%

For this molecule ( CCCCCCCCC(C)OC(=O)CCCCCN(CCO)CCCCCCCC(=O)OC(CCCCCCCC)CCCCCCCC (centres unmarked) ), measured % EE is 94.8%

Just so you know, measured % EE for CCCCCCCCCOC(=O)CCCCCCCN(CCCCCCCC(=O)OC(CCCCCCCC)CCCCCCCC)CCCNC(=O)NC came out at 99.0%

Given item CCCCCC/C=C\COC(=O)CCCCCCCN(CCO)CCCCCCCC(=O)OC(CCCCCCCC)CCCCCCCC , the value recorded as its % EE is 90.5%
